All values here come from patent US20160355530A1.

# Lookup of reported pIC50 keyed by entry
- targetEntity: HCV NS5B polymerase 1a-H77-C316Y (Hepatitis C virus genotype 1a, UniProt P27958, C2736Y)
- Construct: six-histidine tag
- Sequence (P27958 2421-2990 C2736Y): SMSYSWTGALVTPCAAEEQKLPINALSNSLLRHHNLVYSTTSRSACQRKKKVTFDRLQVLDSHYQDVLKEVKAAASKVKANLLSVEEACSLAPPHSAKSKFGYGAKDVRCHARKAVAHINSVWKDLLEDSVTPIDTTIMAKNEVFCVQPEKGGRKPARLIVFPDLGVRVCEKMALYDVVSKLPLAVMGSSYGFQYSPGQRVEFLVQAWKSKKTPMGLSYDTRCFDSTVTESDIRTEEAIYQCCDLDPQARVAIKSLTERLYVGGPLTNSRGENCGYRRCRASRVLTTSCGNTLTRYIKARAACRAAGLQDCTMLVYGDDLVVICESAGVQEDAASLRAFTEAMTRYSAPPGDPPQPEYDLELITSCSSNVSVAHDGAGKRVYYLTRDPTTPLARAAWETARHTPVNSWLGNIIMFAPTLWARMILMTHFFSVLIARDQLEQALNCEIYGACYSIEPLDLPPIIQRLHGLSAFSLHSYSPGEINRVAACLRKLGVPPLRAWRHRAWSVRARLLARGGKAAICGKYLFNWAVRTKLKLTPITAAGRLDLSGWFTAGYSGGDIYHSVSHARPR
- assayInfo: biochemical
- Experimental: Purified HCV NS5B polymerase enzymes were used for polymerase inhibition assays. […] The reaction was initiated by the addition of 20 μM CTP, 20 μM ATP, 0.284 μM (0.5 μCi) of 5,6-[^3H] […] After drying thoroughly in air, 30 μL of Microscint-20 scintillation cocktail (Perkin Elmer) was added to each well, and the retained cpm were determined by scintillation counting. IC50 values were determined by nonlinear regression. […]
pIC50: −log10 of the molar value.

>  <molecule>
CC(C)CCN(c1cc2oc(-c3ccc(Nc4ccccc4)cc3)c(-c3ncc[nH]3)c2cc1C1CC1)S(C)(=O)=O [Example 18]

>  <pIC50>
7.00

$$$$
>  <molecule>
COC(=O)CCCN(c1cc2oc(-c3ccc(F)cc3)c(-c3ncc[nH]3)c2cc1C1CC1)S(C)(=O)=O [Example 68]

>  <pIC50>
6.99

$$$$
>  <molecule>
CS(=O)(=O)N(CCC1CCS(=O)(=O)C1)c1cc2oc(-c3ccc(F)cc3)c(C3=NOCCN3)c2cc1C1CC1 (stereo not drawn) [Example 123]

>  <pIC50>
7.12

$$$$
>  <molecule>
CS(=O)(=O)N(CCC1CCCCC1)c1cc2oc(-c3ccc(F)cc3)c(-c3ncc[nH]3)c2cc1C1CC1 [Example 72]

>  <pIC50>
6.79

$$$$
>  <molecule>
CC(C)CCCN(c1cc2oc(-c3ccc(F)cc3)c(-c3ncc[nH]3)c2cc1C1CC1)S(C)(=O)=O [Example 40]

>  <pIC50>
7.15

$$$$
>  <molecule>
CS(=O)(=O)N(CCCN1CCOCC1)c1cc2oc(-c3ccc(F)cc3)c(C3=NOCCN3)c2cc1C1CC1 [Example 126]

>  <pIC50>
7.04

$$$$
>  <molecule>
CCS(=O)(=O)CCCN(c1cc2oc(-c3ccc(F)cc3)c(C3=NOCCN3)c2cc1C1CC1)S(C)(=O)=O [Example 143]

>  <pIC50>
7.12

$$$$
>  <molecule>
CS(=O)(=O)N(CCC(F)(F)F)c1cc2oc(-c3ccc(F)cc3)c(C3=NOCCN3)c2cc1C1CC1 [Example 118]

>  <pIC50>
6.94

$$$$
>  <molecule>
COc1ccc(-c2nn3ccc(-c4cc(C(=O)NC5(c6ccccc6)CC5)ccc4C)cc3c2C2=NOCCN2)cc1 [Example 19]

>  <pIC50>
6.34

$$$$
>  <molecule>
CC(C)CCN(c1cc2oc(-c3ccc(F)cc3)c(-c3ncc[nH]3)c2cc1C1CC1)S(C)(=O)=O [Example 4]

>  <pIC50>
7.24

$$$$
>  <molecule>
CC(C)CCN(c1cn2nc(-c3ccc(F)cc3)c(-c3ncc[nH]3)c2cc1C1CC1)S(C)(=O)=O [Example 17]

>  <pIC50>
5.74

$$$$
>  <molecule>
CS(=O)(=O)N(CCCC(N)=O)c1cc2oc(-c3ccc(F)cc3)c(-c3ncc[nH]3)c2cc1C1CC1 [Example 108]

>  <pIC50>
7.22

$$$$
>  <molecule>
CCCCN(c1cc2oc(-c3ccc(F)cc3)c(-c3ncc[nH]3)c2cc1C1CC1)S(C)(=O)=O [Example 39]

>  <pIC50>
7.11

$$$$
>  <molecule>
CS(=O)(=O)N(CCCc1n[nH]c(=O)o1)c1cc2oc(-c3ccc(F)cc3)c(-c3ncc[nH]3)c2cc1C1CC1 [Example 179]

>  <pIC50>
7.35

$$$$
>  <molecule>
CNC(=O)CCCN(c1cc2oc(-c3ccc(F)cc3)c(-c3ncc[nH]3)c2cc1C1CC1)S(C)(=O)=O [Example 107]

>  <pIC50>
6.91

$$$$
>  <molecule>
CS(=O)(=O)N(CCC1CCS(=O)(=O)C1)c1cc2oc(-c3ccc(F)cc3)c(C3=NOCN3)c2cc1C1CC1 (stereo not drawn) [Example 149]

>  <pIC50>
7.39

$$$$
>  <molecule>
CS(=O)(=O)N(Cc1sc(Br)nc1C(F)(F)F)c1ccc2c(-c3ncc[nH]3)c(-c3ccccc3)oc2c1 [Example 22]

>  <pIC50>
6.75

$$$$
>  <molecule>
C=C(c1ccccc1)c1ccc(-c2oc3cc(N(CCC(C)C)S(C)(=O)=O)c(C4CC4)cc3c2-c2ncc[nH]2)cc1 [Example 167]

>  <pIC50>
5.10

$$$$
